- METHOD: Permeability of the compound from apical to basolateral side in human Caco2 cells
- Assay type: ADME, cell-based
- TEST_PARAMETERS: Caco-2, read-out: permeability
Output True for Papp A→B not less than 4 ×10⁻⁶ cm/s; output False otherwise.

{"columns": ["COMPOUND_STRUCTURE", "LABEL_VALUE"],
 "data": [
  ["Cn1ncc(C(=O)N2CCC(Nc3cc(=O)[nH]c4ccc(F)cc34)CC2)c1Cl", "False"],
  ["Cn1ncc(C(=O)N2CCC(Nc3cc(=O)[nH]c4cc(F)c(F)cc34)CC2)c1Cl", "False"],
  ["Cn1ncc(C(=O)N2[C@@H]3CC[C@H]2C[C@@H](Nc2n[nH]c4ccc(F)cc24)C3)c1Cl", "True"],
  ["Cc1onc(C(=O)N2[C@@H]3CC[C@H]2C[C@@H](Nc2cc(=O)n(C)c4nccnc24)C3)c1C", "True"]
]}

* * *

- METHOD: Clearance in Wistar rat at 2 mg/kg, iv
- Format: ADME, organism-based
- Parameters: dose 2 mg/kg, route intravenous
- TEST_PARAMETERS: in vivo

{"columns": ["COMPOUND_STRUCTURE", "clearance [mL/min/kg]"],
 "data": [
  ["Cn1ncc(C(=O)N2CCC(Nc3cc(=O)n(C)c4ccccc34)CC2)c1Cl", 24.8],
  ["Cn1ncc(C(=O)N2CCC(Nc3cc(=O)[nH]c4cc(F)c(F)cc34)CC2)c1Cl", 34.4]
]}

* * *

Form field: IC50 (one value per entry).
- METHOD: Inhibition of Mycobacterium smegmatis DprE1 Y321H mutant using farnesylphosphoryl-beta-D-ribofuranose as substrate assessed as conversion of amplex red to resorufin after 30 mins
- Design: species or system Mycolicibacterium smegmatis
QUANTITY_MEASURED: IC50 (µM)

{"columns": ["COMPOUND_STRUCTURE", "QUANTITY_MEASURED", "MEASURE_UNIT", "REL", "RECORDED_VALUE"],
 "data": [
  ["Cn1ncc(C(=O)N2CCC(Nc3cc(=O)[nH]c4cc(F)c(F)cc34)CC2)c1Cl", "IC50", "µM", ">", 10],
  ["Cc1onc(C(=O)N2CCC(Nc3cc(=O)n(C)c4cc(F)c(F)cc34)CC2)c1C", "IC50", "µM", "=", 7.02],
  ["Cn1ncc(C(=O)N2CCC(Nc3cc(=O)[nH]c4ccc(F)cc34)CC2)c1Cl", "IC50", "µM", "=", 9.47],
  ["C[C@H]1C[C@H](Nc2cc(=O)[nH]c3cc(F)c(F)cc23)CCN1C(=O)c1cnn(C)c1Cl", "IC50", "µM", "=", 1.03],
  ["Cn1ncc(C(=O)N2CCC(Nc3cc(=O)[nH]c4ccccc34)CC2)c1Cl", "IC50", "µM", ">", 10],
  ["Cn1ncc(C(=O)N2[C@@H]3CC[C@H]2C[C@@H](Nc2cc(=O)[nH]c4ccc(F)cc24)C3)c1Cl", "IC50", "µM", "=", 0.55]
]}

* * *

Each entry below lists one item and its recorded bioavailability value.
- METHOD: Oral bioavailability in Wistar rat at 10 mg/kg
- Format: ADME, organism-based
- TEST_PARAMETERS: in vivo
QUANTITY_MEASURED: bioavailability (%)

{"columns": ["COMPOUND_STRUCTURE", "RECORDED_VALUE"],
 "data": [
  ["Cn1ncc(C(=O)N2CCC(Nc3cc(=O)[nH]c4cc(F)c(F)cc34)CC2)c1Cl", 0.3],
  ["Cn1ncc(C(=O)N2CCC(Nc3cc(=O)n(C)c4ccccc34)CC2)c1Cl", 100]
]}
